# Binding Signal (fold over 6E7 parental antibody) annotations
Target: T1, human TREM2 (triggering receptor expressed on myeloid cells 2) (human) (UniProt Q9NZC2)
T1 sequence (looked up): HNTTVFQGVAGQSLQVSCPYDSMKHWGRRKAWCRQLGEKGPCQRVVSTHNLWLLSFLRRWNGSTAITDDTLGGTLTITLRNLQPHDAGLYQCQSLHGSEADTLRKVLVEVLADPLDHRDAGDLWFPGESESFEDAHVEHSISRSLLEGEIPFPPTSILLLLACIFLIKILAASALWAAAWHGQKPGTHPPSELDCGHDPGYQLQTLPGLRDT
Test: 2nd screen, 2 nM Ab
Endpoint name: Binding Signal (fold over 6E7 parental antibody)

Binder	Value reported
6E7 antibody affinity modulation variant V41 (antibody, V domains shown) VH: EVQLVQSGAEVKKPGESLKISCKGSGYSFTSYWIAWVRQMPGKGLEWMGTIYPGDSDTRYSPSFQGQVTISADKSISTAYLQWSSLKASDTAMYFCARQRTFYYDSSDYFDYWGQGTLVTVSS VL: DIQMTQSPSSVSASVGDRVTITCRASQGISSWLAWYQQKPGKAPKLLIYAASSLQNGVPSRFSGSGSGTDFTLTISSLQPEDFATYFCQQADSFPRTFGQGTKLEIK	0.58 fold
6E7 antibody affinity modulation variant V87 (antibody, V domains shown) VH: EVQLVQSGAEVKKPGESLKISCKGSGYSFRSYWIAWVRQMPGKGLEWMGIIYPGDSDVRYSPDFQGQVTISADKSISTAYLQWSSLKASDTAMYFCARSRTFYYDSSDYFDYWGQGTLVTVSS VL: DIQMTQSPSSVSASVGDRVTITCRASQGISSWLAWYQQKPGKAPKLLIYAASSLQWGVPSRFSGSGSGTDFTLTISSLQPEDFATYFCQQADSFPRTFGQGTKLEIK	4.86 fold
6E7 antibody affinity modulation variant V64 (antibody, V domains shown) VH: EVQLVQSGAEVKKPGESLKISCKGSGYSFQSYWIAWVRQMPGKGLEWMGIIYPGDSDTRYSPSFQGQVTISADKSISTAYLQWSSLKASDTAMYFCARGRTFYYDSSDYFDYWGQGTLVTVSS VL: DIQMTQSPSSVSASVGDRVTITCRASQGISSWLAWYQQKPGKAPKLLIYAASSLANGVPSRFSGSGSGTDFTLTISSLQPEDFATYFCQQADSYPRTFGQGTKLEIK	4.88 fold
